// DH lookup, one value per entry
- ASSAYED SYSTEM: T1, genetically modified and chemically inactivated C. difficile toxoid A (Clostridium difficile, UniProt P16154 2-2710)
- T1 construct: also called TxdA; the toxoid
- MEASUREMENT DESCRIPTION: ITC
Supply the numeric figure in kcal/mol, leaving out any unit text.

Below: 5 binders and their reported DH.
• hCDIFA-46 (antibody, V domains shown) VH: EVQLVESGGGLVQPGGSLRLSCAASGFTVSRNYMTWVRQAPGKGLEWVSVIYSGGSTYHADSVKGRFTISRDNSKNTLNLQMSSLRAEDTAVYYCARPCPGSSISCDYNMDVWGQGTTVTVSS VL: QAVVTQPASVSGSPGQSITISCTGTSSDVGGYNYVSWYQQHPGKAPKLIIYEVSNRPSGVSNRFSGSKSGNTASLTISGLQAEDEADYYCTSYTSSSMIDVFGTGTKLTVLG = -11.3
• hCDIFA-26 (antibody, V domains shown) VH: EVQLLESGAEVKKPGESLRISCNCSGYSFTSYWIGWVRQMPGEGLEWMGLIQPGGDSYPRYSPSFQGQVTISADKSISTAYLQWRSLKASDTAMYYCARRGFDHWGQGTLVTVSS VL: NFMLTQPPSASGAPGQRVTISCSGSSSNIGSNTVNWYQQLPGTAPKLLIYSNIQRPSGVPDRFSGSKSGTSASLAISGLQSDDEADYYCSAWDDSLNGYVFGTGTKVTVLG = -9.1
• hCDIFA-29 (antibody, V domains shown) VH: EVQLLESGAEVKKPGASIRVSCKASGHSFTDSFTDYYFHWVRQAPGQGLEWMGMINPSVGSTNYAQKFQGRVTLTRDTSTHTVYMELSSLRSEDTAVYFCARDPWFCSRGTSCYYFGLWGQGTLVTVSS VL: DIQLTQSPSSLSASVGDSVTITCRASQSISTYLNWYQQKPGKAPKLLIYDASSLLSGVPSRFSGGGSGTDFTLTISSLQPEDFATYYCQQSDISPPVFGRGTKVEIKR = -15.6
• hCDIFA-24 (antibody, V domains shown) VH: QVQLVQSGGGVVQPGRSLRLSCAASGFSFSTHGMHWVRQAPGKGLEWVAVISYDGSNKYYADSVKGRFTISRDNSKNTVYLQMNSLRAEDTAVFYCAKPRDNYYYYGMDVWGQGTTVTVSS VL: AIRMTQSPSSLSASTGNRVTITCRASQGISSYLAWYQQKPGKAPNLLIYAASTLQSGVPSRFTGSGSGTDFTLTISRLHSENFATYYCQQYFNYPRTFGQGTRLEIKR = -11.2
• hCDIFA-8 (antibody, V domains shown) VH: QVQLVESGGGLVKPGGSLRLSCAASGFTFSTSSMNWVRQAPGKGLEWVSSINTSGDYIYYTDSVKGRFTISRDNAKNSLYLQMNSLRAEDTAVYYCARDLGTWRDYWGQGTLVTVSS VL: QSVLTQPASVSGSPGQSITISCTGTSSDVGSYNLVSWYHQHPGKAPKLIIYEVSKRPSGVSNRFSGSKSGNTASLTISGLQAEDEADYYCYSYAGSSAFAWVFGTGTKLTVLG = -6.9

Please give the measured DH for this binder: hCDIFA-7 (antibody, V domains shown) VH: QVQLRESGPGLVKPSETLSLTCTVSGGSVSNYYWSWIRQPPGKGLEWIGYIYSSGTINFNPSLKGRVTISGDTSKNQFSLKLSSVTAADTAVYYCARSGKWALGAFDIWGQGTMVTVSS VL: QSALTQPPSVSGAPGQRVTISCTGSSSNIGTGYDVHWYQQLPGKVPKLLIHGNGDRPSGVPDRFSASKSGTSASLAITGLQSEDEGDYYCQSYDNSLSGLVVFGGGTKLTVLG
-13.5

Please give the measured DH for this binder: hCDIFA-37 (antibody, V domains shown) VH: QVQLLESGPGLVKTSGTLSLTCSVSGDSVSTNNWWTWVRQPPGKGLEWIGEIYYNGNTIYNPSFKSRVTISVNRSKNHFSLKLNSVTAADRAVYYCARRTWNDVGPFDYWGQGILVTVSS VL: DIVMTQSPSSLSASIGDRVIITCRASQNINRYLNWYQQTAGKAPKLLIYGTSNLQSGVPSRFSGSGSGSGTDFTLTISSLQPEDFATYYCHQSYRTPQTFGQGTKLEIKR
-7.9

Origin of the recorded values: patent US20230218735A1
